Test system: Sarcoma 180a
Assay: Sarcoma 180 ascites (S180a) antitumor screening
Type: in vivo, female CFW mice
Conditions: S180a, dose 1.25 mg/kg, single ip on day 1, in water; ILS > 50% indicates activity
experimental.readout: %ILS (%)
# output: bare number, implied unit %

Any idea what its %ILS is? The compound is N.N.Nc1ccc(I)cc1.O=[N+]([O-])[O-].[Cl-].[Pt+2] [cis-[Pt(NH3)2(4-iodoaniline)Cl]NO3, cis-(Pt(NH3)2(4-iodoaniline)Cl]NO3]
-1

I'd like to know its %ILS. The compound in question is N.N.Nc1ccc(Cl)cc1.O=[N+]([O-])[O-].[Cl][Pt+] [cis-[Pt(NH3)2(4-chloroaniline)Cl]NO3]
3

Look up %ILS: N.N.Nc1cccc(I)c1.O=[N+]([O-])[O-].[Cl-].[Pt+2] [cis-[Pt(NH3)2(3-iodoaniline)Cl]NO3]
-3

Endpoint output: %ILS of N.N.Nc1ccc(F)cc1.O=[N+]([O-])[O-].[Cl-].[Pt+2] [cis-[Pt(NH3)2(4-fluoroaniline)Cl]NO3, cis-[Pt(NH3)2(4-fluoraniline)Cl]NO3] . Value?
6

Endpoint output: %ILS of N.N.Nc1ccc(Br)cc1.O=[N+]([O-])[O-].[Cl][Pt+] [cis-[Pt(NH3)2(4-bromoaniline)Cl]NO3] . Value?
2

###

Tested on: Sarcoma 180a
Assay: Sarcoma 180 ascites (S180a) antitumor screening
Type: in vivo, female CFW mice
Conditions: S180a, dose 40 mg/kg, single ip on day 1, in water; ILS > 50% indicates activity
Experimental: All of the compounds of the Examples were tested against Sarcoma 180a in female CFW mice via single ip administration on Day 1. Two of the compounds were active in this system: cis -[Pt(NH3)2(4-iodoaniline)CI]N03 (maximum ILS = 81% at 20 mg/kg) and cis -[Pt(NH3)2(3-iodoaniline)Cl]NO3 (maximum ILS = 83% at 20 mg/kg). […] Female CFW mice (18-25g) were implanted with 2 x 10^6 cells ip on day zero. […] The test was run for twice the MST of the control group, with survivors counted as dying on that day. […]
experimental.readout: %ILS (%)
The reply should be a number in %, with the unit left off.

[[record]]
molecule = "N.N.Nc1ccc(F)cc1.O=[N+]([O-])[O-].[Cl-].[Pt+2] [cis-[Pt(NH3)2(4-fluoroaniline)Cl]NO3, cis-[Pt(NH3)2(4-fluoraniline)Cl]NO3]"
numeric_value = -77

[[record]]
molecule = "N.N.Nc1cccc(I)c1.O=[N+]([O-])[O-].[Cl-].[Pt+2] [cis-[Pt(NH3)2(3-iodoaniline)Cl]NO3]"
numeric_value = 66

[[record]]
molecule = "N.N.Nc1ccc(Cl)cc1.O=[N+]([O-])[O-].[Cl][Pt+] [cis-[Pt(NH3)2(4-chloroaniline)Cl]NO3]"
numeric_value = -77


Query molecule follows.
Requested field: %ILS. Item: N.N.Nc1ccc(Br)cc1.O=[N+]([O-])[O-].[Cl][Pt+] [cis-[Pt(NH3)2(4-bromoaniline)Cl]NO3]
-74

###

Test system: Sarcoma 180a
Test: Sarcoma 180 ascites (S180a) antitumor screening
Assay type: in vivo, female CFW mice
Conditions: S180a, dose 10 mg/kg, single ip on day 1, in water; ILS > 50% indicates activity
experimental.readout: %ILS (%)
Answer format: numeric, % implied, no suffix.

[[record]]
compound = "N.N.Nc1ccc(F)cc1.O=[N+]([O-])[O-].[Cl-].[Pt+2] [cis-[Pt(NH3)2(4-fluoroaniline)Cl]NO3, cis-[Pt(NH3)2(4-fluoraniline)Cl]NO3]"
numeric_value = 45

[[record]]
compound = "N.N.Nc1cccc(I)c1.O=[N+]([O-])[O-].[Cl-].[Pt+2] [cis-[Pt(NH3)2(3-iodoaniline)Cl]NO3]"
numeric_value = 51


Can you look up the measured %ILS of N.N.Nc1ccc(Cl)cc1.O=[N+]([O-])[O-].[Cl][Pt+] [cis-[Pt(NH3)2(4-chloroaniline)Cl]NO3] for me?
44

Which %ILS value belongs to N.N.Nc1ccc(Br)cc1.O=[N+]([O-])[O-].[Cl][Pt+] [cis-[Pt(NH3)2(4-bromoaniline)Cl]NO3] ?
44

Fill in the blank: the reported %ILS of N.N.Nc1ccc(I)cc1.O=[N+]([O-])[O-].[Cl-].[Pt+2] [cis-[Pt(NH3)2(4-iodoaniline)Cl]NO3, cis-(Pt(NH3)2(4-iodoaniline)Cl]NO3] is ____.
39
